The reader will find reported Ki values listed item by item below.
# Target system: UniProt P06935
# Protocol details: Inhibition of WNV recombinant NS2B-NS3 protease
Non-standard residues stand in square brackets, D forms with d. Residues, ends and D or L forms follow the SMILES beside them. *: point of attachment. Orn = NCCC[C@H](N)C(=O)O; PhAc = O=C(Cc1ccccc1)*

{"columns": ["Compound", "Measurement kind", "Result"],
 "data": [
  ["NCCCC[C@H](NC(=O)Cc1ccccc1)C(=O)N[C@@H](CCCCN)C(=O)N[C@H](C=O)Cc1c[nH]c2ccccc12 (PhAc-Lys-Lys-Trp-aldehyde)", "Ki", "4600 nM"],
  ["COc1cccc(CC(=O)N[C@@H](CCCCN)C(=O)N[C@@H](CCCCN)C(=O)N[C@H](C=O)CCCN=C(N)N)c1", "Ki", "11 nM"]
]}

The recorded Ki for N=C(N)NCCC[C@@H](C=O)NC(=O)[C@H](CCCCN)NC(=O)[C@H](CCCN)NC(=O)Cc1ccccc1 (PhAc-[Orn]-Lys-Arg-aldehyde) is 46 nM

* * *

# Target system: Genome polyprotein (West Nile virus, UniProt P06935)
# Sequence (P06935 1371-1501 limits assumed): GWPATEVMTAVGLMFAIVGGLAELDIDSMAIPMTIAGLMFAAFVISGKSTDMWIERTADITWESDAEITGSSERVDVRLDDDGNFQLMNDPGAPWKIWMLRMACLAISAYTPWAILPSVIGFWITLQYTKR
# Sequence (P06935 1502-2120 limits assumed): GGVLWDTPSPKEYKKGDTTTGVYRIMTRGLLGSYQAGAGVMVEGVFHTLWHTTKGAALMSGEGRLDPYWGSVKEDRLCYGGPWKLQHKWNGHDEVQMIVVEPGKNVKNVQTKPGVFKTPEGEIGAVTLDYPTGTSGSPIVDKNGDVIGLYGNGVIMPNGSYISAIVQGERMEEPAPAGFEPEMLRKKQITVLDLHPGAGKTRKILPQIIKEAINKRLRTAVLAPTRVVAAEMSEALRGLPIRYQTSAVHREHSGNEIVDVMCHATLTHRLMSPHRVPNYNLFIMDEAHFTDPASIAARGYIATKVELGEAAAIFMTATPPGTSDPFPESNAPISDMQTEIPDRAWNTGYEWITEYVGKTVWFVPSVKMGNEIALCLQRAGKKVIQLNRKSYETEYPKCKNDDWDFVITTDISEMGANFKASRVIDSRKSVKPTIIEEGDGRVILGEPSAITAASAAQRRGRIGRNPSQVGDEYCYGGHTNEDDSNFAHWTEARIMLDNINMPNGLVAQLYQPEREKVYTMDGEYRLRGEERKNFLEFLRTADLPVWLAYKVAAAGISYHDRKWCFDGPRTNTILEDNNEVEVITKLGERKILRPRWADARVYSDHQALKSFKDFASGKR
# Protocol details: Inhibition of WNV recombinant NS2B-NS3 protease
Starred links: 1 amine or outer side, 2 acyl side, 3 side chain; linkers in the order of their positions; H or OH if unused. Non-standard residues stand in square brackets, D forms with d. Residues, ends and D or L forms follow the SMILES beside them. *: point of attachment. Hydrocinnamoyl = O=C(CCc1ccccc1)*; hArg = N=C(N)NCCCC[C@H](N)C(=O)O; Cit = NC(=O)NCCC[C@H](N)C(=O)O; Orn = NCCC[C@H](N)C(=O)O; Cbz = O=C(OCc1ccccc1)*; PhAc = O=C(Cc1ccccc1)*; CO = O=C([*:1])[*:2]; NHBn = c1ccc(CN*)cc1; Bz = O=C(c1ccccc1)*
The reader will find reported pIC50 values listed item by item below.
Lab note: report pIC50 as minus log10 of the concentration in molar units, number only.

Some solved entries appear below for comparison.
{"columns": ["Molecule", "Measurement kind", "Quantitative readout"],
 "data": [
  ["N=C(N)NCCC[C@@H](C=O)NC(=O)[C@H](CCCCN)NC(=O)[C@H](CCCNC(N)=O)NC(=O)Cc1ccccc1 (PhAc-[Cit]-Lys-Arg-aldehyde)", "pIC50", 6.21],
  ["N=C(N)NCCC[C@@H](C=O)NC(=O)[C@H](CCCCN)NC(=O)[C@H](CCCCN)NC(=O)/C=C/c1ccccc1", "pIC50", 6.24]
]}

The recorded pIC50 for N=C(N)NCCC[C@@H](C=O)NC(=O)[C@H](CCCCN)NC(=O)[C@H](CCCCN)NC(=O)NCc1ccccc1 ({NHBn-CO}-Lys-Lys-Arg-aldehyde) is 6.84

The recorded pIC50 for NCCCC[C@H](NC(=O)c1ccc2ccccc2c1)C(=O)N[C@@H](CCCCN)C(=O)N[C@H](C=O)CCCN=C(N)N is 6.64

The recorded pIC50 for COc1ccc2ccc([C@H](C)C(=O)N[C@@H](CCCCN)C(=O)N[C@@H](CCCCN)C(=O)N[C@H](C=O)CCCNC(=N)N)cc2c1 is 6.95

The recorded pIC50 for N=C(N)NCCCC[C@H](NC(=O)Cc1ccccc1)C(=O)N[C@@H](CCCCN)C(=O)N[C@H](C=O)CCCNC(=N)N (PhAc-[hArg]-Lys-Arg-aldehyde) is 6.60

The recorded pIC50 for N=C(N)NCCC[C@@H](C=O)NC(=O)[C@H](CCCN)NC(=O)[C@H](CCCCN)NC(=O)Cc1ccccc1 (PhAc-Lys-[Orn]-Arg-aldehyde) is 7.14

The recorded pIC50 for NCCCC[C@H](NC(=O)OCc1ccccc1)C(=O)N[C@@H](CCCCN)C(=O)N[C@H](C=O)CCCN=C(N)N (Cbz-Lys-Lys-Arg-aldehyde) is 6.65

The recorded pIC50 for NCCCC[C@H](NC(=O)c1ccccc1)C(=O)N[C@@H](CCCCN)C(=O)N[C@H](C=O)CCCN=C(N)N (Bz-Lys-Lys-Arg-aldehyde) is 6.57

The recorded pIC50 for NCCCC[C@H](NC(=O)CCc1ccccc1)C(=O)N[C@@H](CCCCN)C(=O)N[C@H](C=O)CCCN=C(N)N (Hydrocinnamoyl-Lys-Lys-Arg-aldehyde) is 6.34

The recorded pIC50 for N=C(N)NCCC[C@@H](C=O)NC(=O)[C@H](CCCCN)NC(=O)[C@H](CCCN)NC(=O)Cc1ccccc1 (PhAc-[Orn]-Lys-Arg-aldehyde) is 6.59

The recorded pIC50 for N=C(N)NCCC[C@@H](C=O)NC(=O)[C@H](CCCCN)NC(=O)[C@H](CCCCN)NC(=O)COc1ccccc1 is 6.97

The recorded pIC50 for N=C(N)NCCCC[C@H](NC(=O)[C@H](CCCCN)NC(=O)Cc1ccccc1)C(=O)N[C@H](C=O)CCCNC(=N)N (PhAc-Lys-[hArg]-Arg-aldehyde) is 6.53

Hey, just so you know, these numbers are from ChEMBL document CHEMBL1140065.
